The entries below are paired with their reported inhibition of growth at 10 µM.
- System: MDA-MB-435
- Protocol Summary: Growth inhibition of human MDA-MB-435 cells at 10 uM after 48 hrs by SRB assay
- Assay type: functional
- Particulars: MDA-MB-435, 48 h, read-out: GI

{"Smiles Representation": "NS(=O)(=O)c1ccc(Nc2nccc(Nc3ccc4[nH]ncc4c3)n2)cc1", "inhibition of growth at 10 µM": "1%"}
{"Smiles Representation": "Clc1ccc(Nc2nccc(Nc3ccc4[nH]ncc4c3)n2)cc1", "inhibition of growth at 10 µM": "44%"}
{"Smiles Representation": "Fc1ccc(Nc2nccc(Nc3ccc4[nH]ncc4c3)n2)cc1", "inhibition of growth at 10 µM": "25%"}
{"Smiles Representation": "COc1ccc(Nc2nccc(Nc3ccc4[nH]ncc4c3)n2)cc1", "inhibition of growth at 10 µM": "65%"}
{"Smiles Representation": "COc1cccc(Nc2nccc(Nc3ccc4[nH]ncc4c3)n2)c1", "inhibition of growth at 10 µM": "178%"}

###

- System: SK-MEL-5
- Protocol Summary: Growth inhibition of human SK-MEL-5 cells at 10 uM after 48 hrs by SRB assay
- Format: functional
- Particulars: SK-MEL-5, 48 h, read-out: GI

{"Smiles Representation": "COc1cccc(Nc2nccc(Nc3ccc4[nH]ncc4c3)n2)c1", "inhibition of growth at 10 µM (%)": 184}
{"Smiles Representation": "Clc1ccc(Nc2nccc(Nc3ccc4[nH]ncc4c3)n2)cc1", "inhibition of growth at 10 µM (%)": 74}
{"Smiles Representation": "NS(=O)(=O)c1ccc(Nc2nccc(Nc3ccc4[nH]ncc4c3)n2)cc1", "inhibition of growth at 10 µM (%)": 11}
{"Smiles Representation": "COc1ccc(Nc2nccc(Nc3ccc4[nH]ncc4c3)n2)cc1", "inhibition of growth at 10 µM (%)": 98}
{"Smiles Representation": "Fc1ccc(Nc2nccc(Nc3ccc4[nH]ncc4c3)n2)cc1", "inhibition of growth at 10 µM (%)": 66}

###

- Test system: ACHN
- Protocol Summary: Growth inhibition of human ACHN cells at 10 uM after 48 hrs by SRB assay
- Assay type: functional
- Particulars: read-out: GI
Entries and their inhibition of growth at 10 µM values follow.
Readout Label: inhibition of growth at 10 µM (%)

{"Smiles Representation": "Clc1ccc(Nc2nccc(Nc3ccc4[nH]ncc4c3)n2)cc1", "Readout Label": "inhibition of growth at 10 µM", "Observed": 53}
{"Smiles Representation": "NS(=O)(=O)c1ccc(Nc2nccc(Nc3ccc4[nH]ncc4c3)n2)cc1", "Readout Label": "inhibition of growth at 10 µM", "Observed": -7}
{"Smiles Representation": "Fc1ccc(Nc2nccc(Nc3ccc4[nH]ncc4c3)n2)cc1", "Readout Label": "inhibition of growth at 10 µM", "Observed": 47}
{"Smiles Representation": "COc1cccc(Nc2nccc(Nc3ccc4[nH]ncc4c3)n2)c1", "Readout Label": "inhibition of growth at 10 µM", "Observed": 103}
{"Smiles Representation": "COc1ccc(Nc2nccc(Nc3ccc4[nH]ncc4c3)n2)cc1", "Readout Label": "inhibition of growth at 10 µM", "Observed": 71}

###

- Protocol Summary: Growth inhibition of human OVCAR5 cells at 10 uM after 48 hrs by SRB assay
- Assay type: functional
- Particulars: OVCAR-5, 48 h, read-out: GI
Listed compounds paired with reported inhibition of growth at 10 µM

{"Smiles Representation": "Clc1ccc(Nc2nccc(Nc3ccc4[nH]ncc4c3)n2)cc1", "inhibition of growth at 10 µM / %": 35}
{"Smiles Representation": "NS(=O)(=O)c1ccc(Nc2nccc(Nc3ccc4[nH]ncc4c3)n2)cc1", "inhibition of growth at 10 µM / %": -10}
{"Smiles Representation": "COc1ccc(Nc2nccc(Nc3ccc4[nH]ncc4c3)n2)cc1", "inhibition of growth at 10 µM / %": 48}
{"Smiles Representation": "COc1cccc(Nc2nccc(Nc3ccc4[nH]ncc4c3)n2)c1", "inhibition of growth at 10 µM / %": 67}
{"Smiles Representation": "Fc1ccc(Nc2nccc(Nc3ccc4[nH]ncc4c3)n2)cc1", "inhibition of growth at 10 µM / %": 32}

###

- Test system: A549
- Protocol Summary: Growth inhibition of human A549/ATCC cells at 10 uM after 48 hrs by SRB assay
- Type: functional
- Particulars: A549, 48 h, read-out: GI
Listed below: inhibition of growth at 10 µM values for each entry.
Readout Label: inhibition of growth at 10 µM (%)

{"Smiles Representation": "Clc1ccc(Nc2nccc(Nc3ccc4[nH]ncc4c3)n2)cc1", "Observed": 50}
{"Smiles Representation": "NS(=O)(=O)c1ccc(Nc2nccc(Nc3ccc4[nH]ncc4c3)n2)cc1", "Observed": 11}
{"Smiles Representation": "COc1ccc(Nc2nccc(Nc3ccc4[nH]ncc4c3)n2)cc1", "Observed": 76}
{"Smiles Representation": "Fc1ccc(Nc2nccc(Nc3ccc4[nH]ncc4c3)n2)cc1", "Observed": 43}
{"Smiles Representation": "COc1cccc(Nc2nccc(Nc3ccc4[nH]ncc4c3)n2)c1", "Observed": 168}

###

- Protocol Summary: Growth inhibition of human RPMI8226 cells at 10 uM after 48 hrs by SRB assay
- Assay type: functional
- Particulars: RPMI-8226, 48 h, read-out: GI
Classify by measured inhibition of growth at 10 µM: Fulfilled if it is equal to or exceeds 80%, Not fulfilled if it is smaller.

{"Smiles Representation": "Fc1ccc(Nc2nccc(Nc3ccc4[nH]ncc4c3)n2)cc1", "Assigned Category": "Not fulfilled"}
{"Smiles Representation": "NS(=O)(=O)c1ccc(Nc2nccc(Nc3ccc4[nH]ncc4c3)n2)cc1", "Assigned Category": "Not fulfilled"}
{"Smiles Representation": "COc1cccc(Nc2nccc(Nc3ccc4[nH]ncc4c3)n2)c1", "Assigned Category": "Fulfilled"}
{"Smiles Representation": "COc1ccc(Nc2nccc(Nc3ccc4[nH]ncc4c3)n2)cc1", "Assigned Category": "Fulfilled"}

###

- Protocol Summary: Growth inhibition of human PC3 cells at 10 uM after 48 hrs by SRB assay
- Type: functional
- Particulars: PC-3, 48 h, read-out: GI
Readout Label: inhibition of growth at 10 µM (%)

{"Smiles Representation": "NS(=O)(=O)c1ccc(Nc2nccc(Nc3ccc4[nH]ncc4c3)n2)cc1", "Observed": 25}
{"Smiles Representation": "COc1cccc(Nc2nccc(Nc3ccc4[nH]ncc4c3)n2)c1", "Observed": 181}
{"Smiles Representation": "COc1ccc(Nc2nccc(Nc3ccc4[nH]ncc4c3)n2)cc1", "Observed": 87}
{"Smiles Representation": "Fc1ccc(Nc2nccc(Nc3ccc4[nH]ncc4c3)n2)cc1", "Observed": 54}
{"Smiles Representation": "Clc1ccc(Nc2nccc(Nc3ccc4[nH]ncc4c3)n2)cc1", "Observed": 75}

###

- Protocol Summary: Growth inhibition of human SNB75 cells at 10 uM after 48 hrs by SRB assay
- Format: functional
- Particulars: SNB-75, 48 h, read-out: GI

{"Smiles Representation": "Clc1ccc(Nc2nccc(Nc3ccc4[nH]ncc4c3)n2)cc1", "Unit Of Measurement": "%", "inhibition of growth at 10 µM": 32}
{"Smiles Representation": "COc1cccc(Nc2nccc(Nc3ccc4[nH]ncc4c3)n2)c1", "Unit Of Measurement": "%", "inhibition of growth at 10 µM": 70}
{"Smiles Representation": "COc1ccc(Nc2nccc(Nc3ccc4[nH]ncc4c3)n2)cc1", "Unit Of Measurement": "%", "inhibition of growth at 10 µM": 34}
{"Smiles Representation": "NS(=O)(=O)c1ccc(Nc2nccc(Nc3ccc4[nH]ncc4c3)n2)cc1", "Unit Of Measurement": "%", "inhibition of growth at 10 µM": 22}

###

Catalogue of compounds with associated inhibition of growth at 10 µM
- Test system: NCI-H23
- Protocol Summary: Growth inhibition of human NCI-H23 cells at 10 uM after 48 hrs by SRB assay
- Type: functional
- Particulars: NCI-H23, 48 h, read-out: GI
Readout Label: inhibition of growth at 10 µM (%)

{"Smiles Representation": "Fc1ccc(Nc2nccc(Nc3ccc4[nH]ncc4c3)n2)cc1", "Observed": 27}
{"Smiles Representation": "NS(=O)(=O)c1ccc(Nc2nccc(Nc3ccc4[nH]ncc4c3)n2)cc1", "Observed": 14}
{"Smiles Representation": "COc1ccc(Nc2nccc(Nc3ccc4[nH]ncc4c3)n2)cc1", "Observed": 60}
